target: T1, human GARP-proTGFβ1 complex (human, UniProt Q14392 20-627; P01137 30-390); experiment: BLI (Octet)
T1 construct: also called hGARP-proTGFβ1; hGARP
T1 sequence (Q14392 20-627, chain 1 of 2): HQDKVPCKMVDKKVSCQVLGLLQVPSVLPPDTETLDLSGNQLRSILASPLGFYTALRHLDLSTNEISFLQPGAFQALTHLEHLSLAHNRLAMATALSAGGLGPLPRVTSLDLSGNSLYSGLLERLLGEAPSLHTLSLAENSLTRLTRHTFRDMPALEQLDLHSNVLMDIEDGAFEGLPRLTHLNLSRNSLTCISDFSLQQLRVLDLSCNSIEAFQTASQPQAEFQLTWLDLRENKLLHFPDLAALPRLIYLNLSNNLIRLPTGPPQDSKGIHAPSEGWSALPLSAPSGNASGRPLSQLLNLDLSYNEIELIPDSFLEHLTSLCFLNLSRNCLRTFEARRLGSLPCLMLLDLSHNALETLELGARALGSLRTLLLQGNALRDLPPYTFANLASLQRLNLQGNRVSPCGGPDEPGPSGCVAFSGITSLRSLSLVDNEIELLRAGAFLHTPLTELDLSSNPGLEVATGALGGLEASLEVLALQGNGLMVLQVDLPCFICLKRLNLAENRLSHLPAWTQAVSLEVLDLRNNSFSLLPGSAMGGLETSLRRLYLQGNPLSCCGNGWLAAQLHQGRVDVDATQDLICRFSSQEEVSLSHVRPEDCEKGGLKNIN
T1 sequence (P01137 30-390, chain 2 of 2): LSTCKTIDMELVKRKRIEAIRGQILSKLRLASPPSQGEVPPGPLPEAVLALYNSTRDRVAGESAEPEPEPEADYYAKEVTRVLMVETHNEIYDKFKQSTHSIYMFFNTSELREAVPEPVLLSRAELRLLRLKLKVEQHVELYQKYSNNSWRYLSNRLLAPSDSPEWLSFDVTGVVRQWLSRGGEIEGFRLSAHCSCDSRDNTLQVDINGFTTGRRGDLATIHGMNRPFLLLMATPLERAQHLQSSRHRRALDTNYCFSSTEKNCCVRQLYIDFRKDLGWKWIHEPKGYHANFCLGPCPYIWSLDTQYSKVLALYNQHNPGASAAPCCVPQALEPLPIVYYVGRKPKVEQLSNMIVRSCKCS
Kindly supply the reported log10 of Kd values for the records listed here.
Transform log10 | Measure Kd | Unit nM

q: What does the data say about its log10 of Kd? Entry: Ab20 (antibody, IgG4, V domains shown) VH: EVQLLESGGGLVQPGGSLRLSCAASGFTFSAYAMTWVRQAPGKGLEWVSAISGSGGVTYYADSVKGRFTISRDNSKNTLYLQMNSLRAEDTAVYYCARVSSGHWDYDYWGQGTLVTVSS VL: DIQLTQSPSSLSASVGDRVTITCRASQSISSYLNWYQQKPGKAPKLLIYAASNLQSGVPSRFSGSGSGTDFTLTISSLQPEDFATYYCQQTYTVPLTFGGGTKVEIK
a: -0.05

q: What does the data say about its log10 of Kd? Entry: Ab32 (antibody, IgG4, V domains shown) VH: EVQLVESGGGLVQPGGSLRLSCAASGFTFSSFSMNWVRQAPGKGLEWVSYISPSADTIYYADSVKGRFTISRDNAKNTLYLQMNSLRAEDTAVYYCARGVWDMGDMLDPWGQGTLVTVSS VL: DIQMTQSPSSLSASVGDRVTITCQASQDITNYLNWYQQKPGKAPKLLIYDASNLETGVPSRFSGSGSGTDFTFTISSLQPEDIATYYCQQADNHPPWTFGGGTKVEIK
a: -0.30

q: What does the data say about its log10 of Kd? Entry: Ab12 (antibody, IgG4, V domains shown) VH: QVQLVESGGGVVQPGRSLRLSCAASGFTFSDYAMVWVRQAPGKGLEWVSAISGSGFTTYYADSVKGRFTISRDNSKNTLYLQMNSLRAEDTAVYYCARVSSGHWDFDYWGQGTLVTVSS VL: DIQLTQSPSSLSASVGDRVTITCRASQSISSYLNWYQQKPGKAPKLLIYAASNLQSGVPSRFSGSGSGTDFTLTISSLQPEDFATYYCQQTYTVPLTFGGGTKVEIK
a: 0.85

q: What does the data say about its log10 of Kd? Entry: Ab22 (antibody, IgG4, V domains shown) VH: EVQLVESGGGLVQPGGSLRLSCAASGFTFGSFSMNWVRQAPGKGLEWVSYIHSDASTIYYADSVKGRFTISRDNAKNSLYLQMNSLRAEDTAVYYCARGVLDYGDMLDPWGQGTLVTVSS VL: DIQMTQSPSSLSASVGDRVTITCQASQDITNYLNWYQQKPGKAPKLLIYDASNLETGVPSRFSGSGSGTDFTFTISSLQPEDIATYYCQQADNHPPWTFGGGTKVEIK
a: -0.01

q: What does the data say about its log10 of Kd? Entry: Ab25 (antibody, V domains shown) VH: EVQLVESGGGLVQPGGSLRLSCAASGFTFGSFSMDWVRQAPGKGLEWVSYISPDASTIYYADSVKGRFTISRDNAKNSLYLQMNSLRAEDTAVYYCARGVLDYGDMLDPWGQGTLVTVSS VL: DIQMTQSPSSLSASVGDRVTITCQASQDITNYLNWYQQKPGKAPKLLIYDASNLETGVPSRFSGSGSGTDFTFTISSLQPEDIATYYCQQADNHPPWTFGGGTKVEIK
a: -0.31
